B1: Azoarcus group I ribozyme (parent)
chain: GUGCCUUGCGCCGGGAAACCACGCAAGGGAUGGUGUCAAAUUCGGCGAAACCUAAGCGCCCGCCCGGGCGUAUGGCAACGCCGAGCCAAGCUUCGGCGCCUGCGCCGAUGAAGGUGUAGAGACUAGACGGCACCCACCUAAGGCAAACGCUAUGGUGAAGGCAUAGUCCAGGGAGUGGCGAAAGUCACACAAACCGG

variants of: B1; test: reverse-splicing fitness (ratio to wild type); higher = more active; in vitro selection; Mg2+ level not given
The reader will find reported reverse-splicing fitness values listed item by item below.
Form field (numeric): enter value without unit.

variantDesignation: A111G A120U A145G C150A C169A
reverse-splicing fitness: 0.00596
//
variantDesignation: A111G A120G A145U C150A C169A U176G
reverse-splicing fitness: 0.00504
//
variantDesignation: A111G A120C C150A C169A U176A
reverse-splicing fitness: 0.0158
//
variantDesignation: C82G A111C A145C C169U U176G
reverse-splicing fitness: 0.00741
//
variantDesignation: C82U A111C A120U A145U C169G U176A
reverse-splicing fitness: 0.00259

Then this variant:
Request: If you can, please state the reported reverse-splicing fitness value of C82G A120U A145U C169G U176A .
Response: 0.00234
